As a worked illustration, we turn to Ki data collected for Carbonic anhydrase 12 (Homo sapiens, UniProt O43570).
Write the value in µM as a bare number.

| SMILES_STRUCTURE | RECORDED_VALUE |
| --- | --- |
| O=C(NO)[C@H]1C[C@H](NS(=O)(=O)c2ccc(-c3ccccc3)cc2)CN1S(=O)(=O)c1ccc(-c2ccccc2)cc1 | 8.82 |

Let's switch to this molecule now.
input: Suppose we examine the molecule CS(=O)(=O)N1C[C@@H](NS(=O)(=O)c2ccc(-c3ccccc3)cc2)C[C@@H]1C(=O)NO ; what Ki value has been reported?
output: 47

* * *

As a worked illustration, we turn to Ki data collected for Carbonic anhydrase 9 (Homo sapiens, UniProt Q16790).

input: Field: Ki (Carbonic anhydrase 9 (Homo sapiens, UniProt Q16790)). Entry: O=C(NO)[C@H]1C[C@@H](NS(=O)(=O)c2ccc(-c3ccccc3)cc2)CN1S(=O)(=O)c1ccc(Cl)c(Cl)c1
output: > 100 µM

input: Field: Ki (Carbonic anhydrase 9 (Homo sapiens, UniProt Q16790)). Entry: COc1ccc(S(=O)(=O)N2C[C@@H](NS(=O)(=O)c3ccc(-c4ccccc4)cc3)C[C@@H]2C(=O)NO)cc1
output: > 100 µM

input: Field: Ki (Carbonic anhydrase 9 (Homo sapiens, UniProt Q16790)). Entry: O=C(NO)[C@H]1C[C@H](NS(=O)(=O)c2ccc(-c3ccccc3)cc2)CN1S(=O)(=O)c1ccc(OC(F)(F)F)cc1
output: > 100 µM

input: Field: Ki (Carbonic anhydrase 9 (Homo sapiens, UniProt Q16790)). Entry: O=C(NO)[C@H]1C[C@H](NS(=O)(=O)c2ccc(-c3ccccc3)cc2)CN1S(=O)(=O)c1ccc(-c2ccccc2)cc1
output: 21.4 µM

input: Field: Ki (Carbonic anhydrase 9 (Homo sapiens, UniProt Q16790)). Entry: COc1ccc(S(=O)(=O)N2C[C@@H](NS(=O)(=O)c3ccc(-c4ccccc4)cc3)C[C@@H]2C(=O)O)cc1
output: 20.7 µM

input: Field: Ki (Carbonic anhydrase 9 (Homo sapiens, UniProt Q16790)). Entry: O=C(NO)[C@H]1C[C@H](NS(=O)(=O)c2ccc(-c3ccccc3)cc2)CN1S(=O)(=O)c1ccc(Cl)c(Cl)c1
output: > 100 µM

Where these numbers come from: ChEMBL document CHEMBL4732204
